Each item that follows carries a reported normalized growth.
assay: chemical genetic growth profiling, strain panel (AID 1159580);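 further: tested at 20 µM; growth read once vehicle control cultures reached saturation at 30 °C; 1 = growth at the plate median or of vehicle wells; lower values mean less growth of the strain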; conditions: S. cerevisiae deletion strains, growth OD, locus YGR135W, strain pre9, hits give low values
About 2,000 (36%) of roughly 5,500 compounds were called active. Inconclusive results (about 18%) are left out. This is one part of the list.
Just the number, please, no unit attached.

Below, 2 compounds whose answers are already recorded.
CC(C)N(CCC(C(N)=O)(c1ccccc1)c1ccccn1)C(C)C (configuration not stated)	0.952
C=C(C)[C@H]1COc2cc3oc(=O)ccc3cc2O1	0.574

input: Please list normalized growth recorded for the compound CCOCN(C(=O)CCl)c1c(C)cccc1CC
output: 0.982

input: Please list normalized growth recorded for the compound COc1ccc2c(c1)CCC1C2CCC2(C)C1C[C@@H](O)C2O (some centres not stated)
output: 0.961

input: Please list normalized growth recorded for the compound CCCCCc1c2c(cc(O)c1C(=O)O)OC(=O)c1c(cc(OC)cc1C(=O)CCCC)O2
output: 1.04

input: Please list normalized growth recorded for the compound CC(=O)OC(C)C[N+](C)(C)C (configuration not stated)
output: 1.06

input: Please list normalized growth recorded for the compound NS(=O)(=O)c1cc(C2(O)NC(=O)c3ccccc32)ccc1Cl (configuration not stated)
output: 1.04

input: Please list normalized growth recorded for the compound C[C@@H]([C@H](O)c1ccccc1)N(C)C
output: 1.03

---

experiment: chemical genetic growth profiling, strain panel (AID 1159580); conditions: S. cerevisiae deletion strains, growth OD, locus YDR054C, strain cdc34, hits give low values
Out of some 5,500 compounds screened, about 2,000 (36%) were called active. Roughly 18% stayed inconclusive and do not appear here. Some of the results follow.
Each item that follows carries a reported normalized growth.
Just the number, please, no unit attached.

Below, 5 compounds whose answers are already recorded.
Cc1ccc(NNC(=O)c2cccs2)cc1Cl	0.966
Oc1c(Cl)cc(Cl)cc1/C=N\NC(=S)Nc1cc(C(F)(F)F)cc(C(F)(F)F)c1	0.491
COc1cc(Br)cc(C=Nc2ccc(Sc3ccccc3)nc2Sc2ccccc2)c1O	0.957
CN(C)C=Nc1nnc(Sc2nc3c(Cl)cc(Cl)cc3s2)s1	0.954
Oc1c(Cl)cc(Cl)cc1C=Nc1ccc(Sc2ccccc2)nc1Sc1ccccc1	0.95

input: Please list normalized growth recorded for the compound O=C1Nc2ccccc2/C1=C/c1ccc(C(F)(F)F)cc1Cl
output: 0.958

input: Please list normalized growth recorded for the compound Cc1c(C)c(C)c(C(O)c2ccccc2)c(C)c1C (configuration not stated)
output: 0.991

input: Please list normalized growth recorded for the compound FC(F)(F)c1cccc(NC(=S)NN=C2CCCCCC2)c1
output: 0.966

input: Please list normalized growth recorded for the compound Cc1nnc2n1N=C(c1ccc(CC(C)C)cc1)C(C)S2 (configuration not stated)
output: 0.973

input: Please list normalized growth recorded for the compound O=C1Nc2ccccc2/C1=C/c1ccc(Oc2ccccc2)nc1
output: 0.948

input: Please list normalized growth recorded for the compound O/N=C(/c1ccc(Cl)cc1)c1cc2ccccc2o1
output: 0.947

input: Please list normalized growth recorded for the compound COc1ccccc1NC(=S)N/N=C\c1ccccc1O
output: 0.957

input: Please list normalized growth recorded for the compound Cc1cc(Cl)ccc1NNC(=O)c1sccc1Cl
output: 0.882

input: Please list normalized growth recorded for the compound O=C1C(Cl)=C(Oc2cc(Cl)c(Cl)cc2Cl)C(=O)c2ccccc21
output: 0.133

input: Please list normalized growth recorded for the compound CC(C)(C)C(=O)NC(=S)N/N=C\c1cc(Cl)cc(Cl)c1O
output: 0.918

input: Please list normalized growth recorded for the compound CCOC(=O)N/N=C\c1cc(Cl)cc(Cl)c1O
output: 0.928

input: Please list normalized growth recorded for the compound c1ccc(-c2nnc(-c3ccccn3)nc2-c2ccccc2)cc1
output: 0.845

input: Please list normalized growth recorded for the compound O=C1/C(=C/c2ccccn2)CCc2ccccc21
output: 0.937

input: Please list normalized growth recorded for the compound CCNC(=S)N/N=C\c1cc(Cl)cc(Cl)c1O
output: 0.938

input: Please list normalized growth recorded for the compound O=C(Nc1ccccc1)Nc1ccc(Cl)cc1[N+](=O)[O-]
output: 0.97

input: Please list normalized growth recorded for the compound Oc1c(Br)cc(Br)cc1/C=N\n1cnnc1
output: 0.933

input: Please list normalized growth recorded for the compound O=S(=O)(CS(=O)(=O)Oc1ccc(Cl)c(Cl)c1)Oc1ccc(Cl)c(Cl)c1
output: 0.932

---

experiment: chemical genetic growth profiling, strain panel (AID 1159580);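 further: tested at 20 µM; growth read once vehicle control cultures reached saturation at 30 °C; 1 = growth at the plate median or of vehicle wells; lower values mean less growth of the strain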; conditions: S. cerevisiae deletion strains, growth OD, locus YDR137W, strain rgp1, hits give low values
In all, about 5,500 compounds went through this assay and about 2,000 (36%) were called active. Roughly 18% stayed inconclusive and do not appear here. Some of the results follow.
READOUT KIND: normalized growth

Below, 3 compounds whose answers are already recorded.
O=C(O)C1=C[C@@H](O)[C@@H](O)[C@H](O)C1	0.977 (inactive)
CN1C[C@H](C(=O)N[C@]2(C)O[C@@]3(O)[C@@H]4CCCN4C(=O)[C@H](Cc4ccccc4)N3C2=O)C[C@@H]2c3cccc4[nH]cc(c34)C[C@H]21	1.02 (inactive)
O=c1c(O)c(-c2ccc(O)c(O)c2)oc2c(O[C@@H]3O[C@H](CO)[C@H](O)[C@@H](O)[C@H]3O)c(O)cc(O)c12	0.988 (inactive)

# input for lookup
input: Please list normalized growth recorded for the compound CCC(=O)c1c(O)cc(O)cc1O
output: 0.968 (inactive)

---

assay: chemical genetic growth profiling, strain panel (AID 1159580);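 further: tested at 20 µM; growth read once vehicle control cultures reached saturation at 30 °C; 1 = growth at the plate median or of vehicle wells; lower values mean less growth of the strain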; conditions: S. cerevisiae deletion strains, growth OD, locus YMR129W, hits give low values
In all, about 5,500 compounds went through this assay and about 2,000 (36%) were called active. Not shown: some 18% with an inconclusive outcome. This is one part of the list.
Each item that follows carries a reported normalized growth.
Just the number, please, no unit attached.

Below, 5 molecules whose answers are already recorded.
Oc1cc2c(cc1O)C1c3ccc(O)c(O)c3OCC1(O)C2 (stereo unspecified)	1.03
O=C1[O][Bi][O]c2ccccc21	0.96
CC1(C)C(=O)C=C[C@@]2(C)C1C[C@@H](O)[C@]1(C)C2CC[C@@]2(C)[C@H](c3ccoc3)OC(=O)[C@H]3O[C@]321 (stereo partly specified)	1.01
CN1C[C@H](C(=O)N[C@]2(C)O[C@@]3(O)[C@@H]4CCCN4C(=O)[C@H](Cc4ccccc4)N3C2=O)C[C@@H]2c3cccc4[nH]cc(c34)C[C@H]21	0.989
CC1(C)C2CC(=O)[C@]3(C)C(CC[C@@]4(C)[C@H](c5ccoc5)OC(=O)C5OC543)[C@@]2(C)[C@@H](O)C[C@H]1O (stereo partly specified)	1

input: Please list normalized growth recorded for the molecule CC1(C)C(=O)C=C[C@@]2(C)C1C=C[C@]1(C)C2CC[C@@]2(C)[C@H](c3ccoc3)OC(=O)C3OC321 (stereo partly specified)
output: 0.984

input: Please list normalized growth recorded for the molecule CCC1OC(=O)[C@H](C)C(=O)[C@H](C)[C@@H](OC2O[C@H](C)C[C@H](N(C)C)[C@H]2O)[C@](C)(OC)C2(CCCn3cnc(-c4cccnc4)c3)C[C@@H](C)C(=O)[C@H](C)[C@H]3N(C2)C(=O)O[C@]13C (stereo partly specified)
output: 0.974

input: Please list normalized growth recorded for the molecule CC(C)(C)NCC(O)c1cc(O)cc(O)c1 (stereo unspecified)
output: 0.969

input: Please list normalized growth recorded for the molecule CC1(C)O[C@H]2CC(=O)OC[C@]23[C@H]2CC[C@@]4(C)[C@H](c5ccoc5)OC(=O)[C@H]5O[C@]54[C@]2(C)C(=O)C[C@@H]13
output: 0.99

input: Please list normalized growth recorded for the molecule CC(=O)O[C@@H]1CC2C(C)(C)C(=O)C=C[C@]2(C)C2CC[C@@]3(C)[C@H](c4ccoc4)OC(=O)[C@H]4O[C@]43[C@@]21C (stereo partly specified)
output: 1

input: Please list normalized growth recorded for the molecule Cc1ccccc1OCC(O)CO (stereo unspecified)
output: 0.99

input: Please list normalized growth recorded for the molecule OC1CC2CCCC(C1)N2Cc1ccccc1 (stereo unspecified)
output: 0.994

input: Please list normalized growth recorded for the molecule CC1(C)C2CC(=O)[C@]3(C)C(CC[C@@]4(C)[C@H](c5ccoc5)OC(=O)[C@H]5O[C@]543)[C@@]2(C)C(=O)C[C@H]1O (stereo partly specified)
output: 1.02

---

experiment: chemical genetic growth profiling, strain panel (AID 1159580);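 further: tested at 20 µM; growth read once vehicle control cultures reached saturation at 30 °C; 1 = growth at the plate median or of vehicle wells; lower values mean less growth of the strain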; details: S. cerevisiae deletion strains, growth OD, locus YMR263W, strain SAP30, hits give low values
In all, about 5,500 compounds went through this assay and about 2,000 (36%) were called active. Roughly 18% stayed inconclusive and do not appear here. The list shows a part of the results.
READOUT KIND: normalized growth

O=C1CCC(c2ccc(-n3ccnc3)cc2)=NN1	1 (inactive)
CC12CCC3c4ccc(OC(=O)c5ccccc5)cc4CCC3C1CCC2O (stereo unspecified)	1.01 (inactive)
CN1CCC2(CCN3CCc4c(oc5ccccc45)C3C2)N(C)C1=O (stereo unspecified)	1 (inactive)
N#C/C(=C/c1ccc(O)c(O)c1)C(N)=S	0.956 (inactive)
C[C@]12CCC3c4ccc(O)cc4CCC3C1CC[C@@H]2O (stereo partly specified)	0.98 (inactive)

# input for lookup
input: Please list normalized growth recorded for the compound CC(=O)OCC1=C(C(=O)O)N2C(=O)[C@@H](NC(=O)Cc3cccs3)[C@H]2SC1
output: 0.998 (inactive)

Taken from PubChem BioAssay AID1159580.
